# Test system: rat Adrenergic, Alpha 1B Receptor (Adra1B), gene 24173
# Measurement Description: NVS_GPCR_rAdra1B: NovaScreen (NVS) G Protein-Coupled Receptor Assay for rat Adrenergic, Alpha 1B Receptor (Adra1B) (AID 2283297)
Records with an inconclusive call do not appear. Calls of active or inactive are those of the source. The calls were made as follows: active = hit-call score of the fitted dose curve at least 0.9, where 1 is the maximum; inconclusive = response in the unintended direction; inactive = score below 0.9.
One label from this list, please: true (1) = active, false (0) = inactive

These solved cases illustrate the format of a correct answer.
CCCCCCCCCCCCCCCO :: false (0)
COCCOc1cc2cc(C(=O)NC3CCN(C(C)C)CC3)n(CC(=O)Nc3ccc(Cl)cn3)c2cn1 :: true (1)
Cn1cnc([N+](=O)[O-])c1Sc1ncnc2nc[nH]c12 :: false (0)
Nc1ccc(Nc2ccccc2)cc1 :: true (1)
Cc1[nH]cnc1C[C@H]1CCc2c(C)c3ccccc3n2C1=O :: true (1)

Data request: Outcome logged for CC[C@H]1CC[C@H](NCc2cc3c(cc2OC)[C@H]2C[C@H]2C(=O)N3C)[C@H](c2ccccc2)N1 in this assay:
Data returned: true (1)

----------
# Measurement Description: CCTE_Deisenroth_AIME_384WELL_CTox_Inactive: Cytotoxicity Assessment (CTOX) in CCTE's 384-well Estrogen Receptor Transactivation Assay without AIME metabolic competence (metabolism negative), Deisenroth Lab (AID 2284039);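 also: cell viability via live-cell protease substrate cleaved to fluorescent probe; cells exposed 24 h to medium preincubated 2 h with alginate-water beads without S9; loss of fluorescence signal means loss of viability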
Results filed as inconclusive are left out. The source made the active and inactive calls. The calls were made as follows: active = hit-call score of the fitted dose curve at least 0.9, where 1 is the maximum; inconclusive = response in the unintended direction; inactive = score below 0.9.
Respond using exactly one of the listed classes: 1 = active, 0 = inactive

Before answering, review these 4 worked examples.
CC(C)=CCC/C(C)=C\CO :: 0
CC(C)c1cccc(C(C)C)c1N1C(=O)c2ccc(O)cc2C1=O :: 0
CCN(C(=O)c1cc(C)cc(OC[C@H](C)Nc2ccncc2)c1)C(C)C :: 0
Cn1c(=O)cc(Oc2ccc(F)cc2F)c2cnc(NCC(C)(C)O)nc21 :: 0

Data request: Please state the recorded outcome for this compound: CC(C)CCO
Data returned: 0

Data request: Recorded test call requested for CCOC(=O)c1ccc(C2CCC(NC[C@H](O)COc3ccc(O)c(NS(C)(=O)=O)c3)CC2)cc1 (stereo not given in full)
Data returned: 1

Data request: So what was the verdict on CNCc1ccc(NC(=O)c2c[nH]c3c2C(=O)CCC3)cc1 in this test?
Data returned: 0

----------
# Measurement Description: ATG_NF_kB_CIS: Attagene CIS-FACTORIAL HepG2 Assay for human Nuclear Factor Kappa B (NF-kB) (AID 2282991)
# Condition Info: HepG2 Attagene cis-factorial NF-kB reporter mRNA; actives raise or lower the signal
Active and inactive are the calls of the source. Rule for the calls: active = hit-call score of the fitted dose curve at least 0.9, where 1 is the maximum; inactive = score below 0.9.
Result category, one only: Y = active, N = inactive

CCOC(=O)COc1ccc2c(c1)CC(NCC(O)c1cccc(Cl)c1)CC2 (stereo unspecified) :: N

Data request: Tell me the recorded outcome of this test for CC(C)(O)c1coc(S(=O)(=O)NC(=O)Nc2c3c(cc4c2CCC4)CCC3)c1 .
Data returned: N

Data request: How was COC(=O)c1ccccc1O classified in this test?
Data returned: N

Data request: Recorded call for CC(O)CN(CCN(CC(C)O)CC(C)O)CC(C)O (stereo unspecified) ?
Data returned: N

Data request: So what was the verdict on C=CCCCCCCCCC(=O)O in this test?
Data returned: N

Data request: Answer briefly: the call reported for COc1ccc(-n2nc(C(F)F)cc2-c2ccc(S(C)=O)cc2)cc1 (stereo unspecified) in this assay.
Data returned: N

Data request: Outcome? CCOC(=O)CC(CC(=O)OCC)(OC(C)=O)C(=O)OCC
Data returned: N

Data request: Check the results log: what was the call for CNS(=O)(=O)c1cc(C(=O)N2CCC(CCN3C4CCC3CC(n3c(C)nc5ccccc53)C4)(c3cccc(F)c3)CC2)c(Cl)cc1F (stereo unspecified) ?
Data returned: Y

----------
# Read-out: Fatty Acid-Binding Protein 1 (FABP1), FABP1 (gene 2168)
# Measurement Description: LTEA_HepaRG_FABP1: Life Technologies and Expression Analysis (LTEA) Assay for Fatty Acid-Binding Protein 1 (FABP1) using HepaRG (AID 2283494)
# Condition Info: mRNA level, 48 h; actives raise or lower the signal
Calls of active or inactive are those of the source. The calls were made as follows: active = hit-call score of the fitted dose curve at least 0.9, where 1 is the maximum; inactive = score below 0.9.
Output constraint: value belongs to 1 = active, 0 = inactive

Recorded results for 5 compounds are shown here.
CCCCC(CC)COC(=O)c1ccc(C(=O)OCC(CC)CCCC)cc1 (configuration not stated) :: 0
CC[C@H]1CC[C@H](NCc2cc3c(cc2OC)[C@H]2C[C@H]2C(=O)N3C)[C@H](c2ccccc2)N1 :: 0
CCNc1ccccc1 :: 0
O=P(OC(CCl)CCl)(OC(CCl)CCl)OC(CCl)CCl :: 1
COc1ccc(-n2nc(C(F)F)cc2-c2ccc(S(C)=O)cc2)cc1 (configuration not stated) :: 0

Data request: In this assay, the call recorded for C[C@](N)(Cc1ccc(O)c(O)c1)C(=O)O was what?
Data returned: 0

Data request: I would be grateful if you could indicate the recorded call for CC(C)(O)c1coc(S(=O)(=O)NC(=O)Nc2c3c(cc4c2CCC4)CCC3)c1 .
Data returned: 0

Data request: Recorded test outcome, item Cn1c(=O)c2c(ncn2C)n(C)c1=O
Data returned: 0

Data request: For this compound, state the assay outcome: O=C(CCCCCCCCc1cccnc1)N1CCC(C=C(c2ccccc2)c2ccccc2)CC1
Data returned: 1

Data request: Give the logged outcome of this assay for the following compound: COC(=O)CC(=O)OC
Data returned: 1

Data request: GET /call?item= CCc1cc(SCc2sc(-c3ccc(C(F)(F)F)cc3)nc2CN2CCN(c3ccc(OC)cc3)CC2)ccc1OCC(=O)O returns the recorded outcome of this test.
Data returned: 1

Data request: What classification did Cc1[nH]cnc1C[C@H]1CCc2c(C)c3ccccc3n2C1=O end up with in this test?
Data returned: 1

----------
# Measurement Description: Tanguay_ZF_120hpf_JAW_legacy: (Legacy) Oregon State University Tanguay Lab 120 Hour Post-fertilization zebrafish Assay for Jaw Malformation (AID 2283638)
Results filed as inconclusive are left out. Active and inactive are the calls of the source. The calls were made as follows: active = hit-call score of the fitted dose curve at least 0.9, where 1 is the maximum; inconclusive = response in the unintended direction; inactive = score below 0.9.
Give one outcome, nothing more. List: 1 (yes) for active, 0 (no) for inactive

O=C1OC(=O)C2C3C=CC(C3)C12 (stereo not drawn) :: 0 (no)
O=C(NS(=O)(=O)/C=C/c1ccccc1)c1ccc(F)cc1Cl :: 0 (no)
On1ccccc1=S :: 0 (no)

Would you kindly look at the next entry?
Data request: Field: outcome | Entry: CC[C@H]1OC(=O)[C@H](C)[C@@H](O[C@H]2C[C@@](C)(OC)[C@@H](O)[C@H](C)O2)[C@H](C)[C@@H](O[C@@H]2O[C@H](C)C[C@H](N(C)C)[C@H]2O)[C@](C)(O)C[C@@H](C)C(=O)[C@H](C)[C@@H](O)[C@]1(C)O
Data returned: 0 (no)

----------
# Measurement Description: ACEA_AR_agonist_AUC_viability: ACEA Biosciences xCELLigence Real-Time Cell Analysis on Androgen Receptor Agonism for Viability (AID 2283775)
Results filed as inconclusive are left out. Calls of active or inactive are those of the source. Rule for the calls: active = hit-call score of the fitted dose curve at least 0.9, where 1 is the maximum; inconclusive = response in the unintended direction; inactive = score below 0.9.
Result category, one only: class 1 for active, class 0 for inactive

Past entries and their recorded results:
CC[C@H]1CC[C@H](NCc2cc3c(cc2OC)[C@H]2C[C@H]2C(=O)N3C)[C@H](c2ccccc2)N1 :: class 1
CC(C)=CCCC(C)CCO (stereo unspecified) :: class 0
COC(=O)CC(=O)OC :: class 0
C1N2CN3CN1CN(C2)C3 :: class 0
C=CC(=C)CCC=C(C)C :: class 0

Next, consider the following molecule.
Data request: Which outcome was assigned to CCOCCOCCOCCO in this test?
Data returned: class 0

----------
# Read-out: Monokine induced gamma interferon (MIG), CXCL9 (gene 4283)
# Measurement Description: BSK_hDFCGF_MIG: BioMAP Diversity Plus: hDFCGF Assay for Monokine induced gamma interferon (MIG) Biomarker Activity (AID 2283063)
# Condition Info: primary human foreskin fibroblasts; actives raise or lower the signal
The source made the active and inactive calls. Rule for the calls: active = hit-call score of the fitted dose curve at least 0.9, where 1 is the maximum; inactive = score below 0.9.
Please state which outcome applies, choosing from t = active, f = inactive

Answered examples (5):
CN(C)c1ccc(Cc2ccc(N(C)C)cc2)cc1 :: f
CC(C)CC(C)(O)C#CC(C)(O)CC(C)C (centres undefined) :: f
CC(C)=CCC/C(C)=C/CO :: f
CCCCCCCCCCCCCCCO :: f
Oc1ccc2c(c1)-c1ccccc1C2 :: f

Consider the additional compound presented here.
Data request: Dear colleague, could you share the recorded outcome for CC1(C)C(=O)N(Br)C(=O)N1Br when you have a moment?
Data returned: f

----------
# Read-out: ABC Transporter (ABCB1), ABCB1 (gene 5243)
# Measurement Description: LTEA_HepaRG_ABCB1: Life Technologies and Expression Analysis (LTEA) Assay for ABC Transporter (ABCB1) using HepaRG (AID 2283460)
# Condition Info: mRNA level, 48 h; actives raise or lower the signal
Active and inactive are the calls of the source. Rule for the calls: active = hit-call score of the fitted dose curve at least 0.9, where 1 is the maximum; inactive = score below 0.9.
Thanks in advance; please answer with one of these: YES (active), NO (inactive)

For orientation, consider the following solved cases.
COc1cccc(-c2ccc(/C=C\CN3CCCCCC3)cc2Cl)c1 :: NO
CC(C)CCO :: NO
NC(=O)NO :: NO
On1ccccc1=S :: NO
Cn1cnc([N+](=O)[O-])c1Sc1ncnc2nc[nH]c12 :: NO

Data request: # lookup: test call for O=c1n(CC2CO2)c(=O)n(CC2CO2)c(=O)n1CC1CO1 (centres undefined)
Data returned: NO

Data request: Record request — test call for Cc1c(-c2cccnc2)c2ccccc2n1CCCCC(=O)O
Data returned: NO

Data request: Test call, this compound: CC1=CC(=O)CC(C)(C)C1
Data returned: NO

Data request: Test call, this compound: COC(=O)c1ccccc1O
Data returned: NO

Data request: Hi, sorry to bother you, what did the test record for Oc1ccc2c(c1)-c1ccccc1C2 ?
Data returned: NO

Data request: Status in this test for CC(C)c1cccc(C(C)C)c1N1C(=O)c2ccc(O)cc2C1=O ?
Data returned: YES

Data request: Kindly provide the recorded test outcome for the following compound: CCCCCCc1ccc(O)cc1O
Data returned: NO

Data request: Short answer needed: outcome of this test for C1=CCCC=CCCC=CCC1 ?
Data returned: NO

Data request: For CNCc1ccc(NC(=O)c2c[nH]c3c2C(=O)CCC3)cc1 , which call appears in the assay record?
Data returned: NO
